Hi there, I'd appreciate the recorded pKd for every entry that follows.
Biological target: T1, dimeric hIL-4R-hFc (human, UniProt P24394 26-232)
T1 construct: also called hIL-4R-Fc; not shown: human Fc (hFc)
T1 sequence: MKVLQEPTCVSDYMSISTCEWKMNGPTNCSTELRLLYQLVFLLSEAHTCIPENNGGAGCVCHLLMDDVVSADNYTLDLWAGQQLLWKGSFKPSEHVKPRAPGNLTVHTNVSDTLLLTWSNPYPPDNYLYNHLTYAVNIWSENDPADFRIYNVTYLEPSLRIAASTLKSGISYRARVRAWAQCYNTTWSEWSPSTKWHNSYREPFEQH
Test: SPR (BIAcore 2000); antibody captured, dimeric hIL-4R-hFc injected
As a rule, pKd stands for the negative log10 of the concentration, concentration in M.

QUERY: Which pKd is listed for VAK5H4-4 (antibody, V domains shown, Apparently tested with mouse constant region (anti-mouse IgG capture/detection)) VH: QVRLVESGGGVVQPGGSLRLSCVASGFTFRSYGMHWVRQAPGRGLEWVAVISYDGSKTFYVDSVKVRFTISRDNSKNTLYLEMNSLRVDDTAVYFCVKEGRSGSWFDPWGQGTLVAVSS VL: DIQMTQSPSSLSASVGDRVTITCRASQAINNFLAWFQQKPGKTPNSLIFATSSLQSGVPSRFSAGGSGTDFTLTISSLQPEDFATYYCQQYNSHPWTFGQGTKVEIK ?
RESULT: 11.40

QUERY: Which pKd is listed for VAB 16G1-1 (antibody, V domains shown, 403/405; 407/409 without saying which was assayed; Apparently tested with mouse constant region (anti-mouse IgG capture/detection)) VH: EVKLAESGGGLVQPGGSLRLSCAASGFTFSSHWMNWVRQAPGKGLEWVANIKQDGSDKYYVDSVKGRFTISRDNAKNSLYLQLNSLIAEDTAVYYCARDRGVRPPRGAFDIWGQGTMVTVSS VL: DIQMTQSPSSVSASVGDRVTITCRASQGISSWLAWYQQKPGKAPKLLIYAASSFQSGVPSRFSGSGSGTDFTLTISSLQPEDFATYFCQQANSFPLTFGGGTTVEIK ?
RESULT: 10.42

QUERY: Which pKd is listed for VAB 6C10-14 (antibody, V domains shown, Apparently tested with mouse constant region (anti-mouse IgG capture/detection)) VH: QVQLVQSGAEVKKPGASVKVSCKASGYTFTNYGLTWVRQAPGRGLEWMGWISVYNGNTNYAQTLKGRVTMTTDTSTSTAYMELKSLRSDDTAVYYCARGSGYDFDYWGQGTLVTVSS VL: AIQMTQSPSSLSASVGDRVAITCRASQDIRNDLGWYQQKPGKAPKLLIHTASSLQSGVPSRFSGSGSGTDFTLTISNLQPEDFATYYCLQDNSYPYTFGQGTKLEIN ?
RESULT: 9.54
